ASSAYED_TARGET: UniProtKB P0DTD1
ASSAY_READOUT: Kd (µM)
# unit: µM | format: bare number

Ask | Identify measured Kd associated with Oc1cc(O)c2c(c1)O[C@H](c1ccc(O)c(O)c1)[C@H](O)C2 [EC, (−)-epicatechin]
Reply | 23.9
